The reported numbers originate from patent US20250171534A1.

biological target: T1, human LILRB1 expressed on cells (human, UniProt Q8NHL6 24-650); assay: flow cytometry, CHO-LILRB1 cells
T1 construct: In 293T cells it was expressed from pCMV3-LILRB1-GFP; also called CHO-LILRB1; Jurkat-LILRB1
T1 sequence (Q8NHL6 other isoform, or with tags, fused parts or gaps limits assumed): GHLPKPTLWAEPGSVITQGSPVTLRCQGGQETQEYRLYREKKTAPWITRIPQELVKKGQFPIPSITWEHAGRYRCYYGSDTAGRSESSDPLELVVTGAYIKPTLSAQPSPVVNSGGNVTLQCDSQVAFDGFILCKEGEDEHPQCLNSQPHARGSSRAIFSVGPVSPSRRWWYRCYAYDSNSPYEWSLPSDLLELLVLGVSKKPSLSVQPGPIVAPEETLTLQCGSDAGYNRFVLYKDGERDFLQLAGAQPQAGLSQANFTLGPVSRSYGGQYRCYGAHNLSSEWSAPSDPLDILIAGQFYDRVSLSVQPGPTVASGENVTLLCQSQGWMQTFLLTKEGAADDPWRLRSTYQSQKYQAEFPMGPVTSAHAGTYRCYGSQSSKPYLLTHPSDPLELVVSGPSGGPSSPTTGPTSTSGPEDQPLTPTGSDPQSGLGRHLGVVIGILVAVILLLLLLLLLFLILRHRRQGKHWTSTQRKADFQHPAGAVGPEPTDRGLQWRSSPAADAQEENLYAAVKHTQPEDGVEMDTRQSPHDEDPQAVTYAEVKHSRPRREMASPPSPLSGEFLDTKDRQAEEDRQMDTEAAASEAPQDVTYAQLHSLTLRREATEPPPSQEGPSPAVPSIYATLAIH
parameter: EC50 (µg/mL)
# number only, unit µg/mL dropped from output

Q: Would you mind telling me what EC50 value was observed for D2M002-026 (antibody, V domains shown, Hit; also called clone #26) VH: QVQLQQPGAELMKPGASVKISCKATGYTFSSYWIEWVKQRPGHGLEWIGEILPGDGSTNYNAKFKGQATFTADTSSNTAYMQFSSLTSEDSAVYYCARSGAGGYDSGAFAYWGQGTLVTVSS VL: DIVLTQSPASLAVSLGQRATISCRASESVDTYGNSFMHWYQQKPGQPPKLLVYRTSNLESGIPARFSGSGSGTDFTLTINPVEADDVATYYCQQSNEDPWTFGGGTKLEIK ?
A: 1.02

Q: Look up EC50: Anti-LILRB1 antibody 3C1 (antibody, human IgG4 S228P, lambda, V domains shown) VH: EVQLVESGGGLVQPGGSLRLSCAASGFTFSDYDMHWVRQATGKGLEWVATIDTAGDTYYPDSVRGRFTISRENAKNSLSLQMNSLRAGDTAVYFCARDVPGTGFDHWGQGTLVTVSS VL: SSELTQDPAVSVALGQTVRITCQGDSLRSYYESWYQQKPGQAPVLVIYGKNNRPSGIPDRFSGSISGNTASLTITGTQAEDEADYYCNSRDNSGDHWVFGGGTRLTVLG
A: 0.033

Q: Which EC50 is reported for this binder? #11 (antibody, human IgG1, V domains shown, also called D2M002-011) VH: EVQLQQSGAELMKPGASVKISCKATGYTFSNYWIEWVKQRPGHGLEWIGEILPGSGSTDYNEKFEGKATFTADTSSNTAYMQLSSLTSEDSAVYYCARSGAGGYDSGAFAYWGQGTLVTVSA VL: DIQMTQSPASLAVSLGQRATISCRASESVDTYGNSFMHWYQQKPGQPPKLLIYRTSNLESGIPARFSGSGSRTDFTLTINPVEADDVATYYCQQSNEDPWTFGGGTKLEIK
A: 1.13

Q: GET /values?readout=EC50&item= #16 (antibody, human IgG1, V domains shown, also called D2M002-016) VH: EVQLQQSGAELMKPGASVKISCKATGNTFSSYWIEWVKQRPGHDLEWIGEILPGSGSTNYNEKFKGKATFTADTSSNTAYMQLNSLTSEDSAVYYCARSGAGGYDSGAFAYWGQGTLVTVSA VL: DIEMTQSPASLAVSLGQRATISCRASESIDSYGNSFMHWYQQKPGQPPKLLIYRTSNLESGIPARFSGSGSRTDFTLTINPVEADDVATYYCQQSNEDPWTFGGGTKLEIK
A: 2.66

Q: // returns reported EC50 for input #27 (antibody, human IgG1, V domains shown, also called D2M002-027) VH: EVQLQQSGAELMKPGASVKISCKITGYTFSSYWIEWVKQRPGHDLEWIGEILPGSGSTNYNEKFKGKASFTADTSSNTAYMQLNSLTSEDSAVYYCARSGAGGYDSGAFAYWGQGTLVTVSA VL: DIVLTQSPASLAVSLGQRATISCRASESVDTYGNSFMHWYQQKPGQPPKLLIYRTSNLESGIPARFSGSGSRTDFTLTINPVEADDVATYYCQQSNEDPWTFGGGTKLEIK
A: 1.72

Q: Quick check: EC50 of #8 (antibody, human IgG1, V domains shown, also called D2M002-008) VH: EVQLQQPGAELMKPGASVKISCKATGYTFSSSWTEWVKQRPGHGLEWIGEILPGSGSTNYNEKFKGKATFTADTSSNTAYMQLSSLTSEDSAVYYCARSGAGGYDSGAFAYWGQGTLVTVSA VL: DIVLTQSPASLAVSLGQRATISCRASESIDTYGNSFMHWYQQKPGQPPKLLIYRTSNLESGIPARFSGSGSRTDFTLTINPVEADDVATYYCQQSNEDPWTFGGGTKLEIK ?
A: 0.768

Q: Recorded EC50 of #22 (antibody, human IgG1, V domains shown, also called D2M002-022) VH: QVQLQQSGAELMKPGASVKISCKATGYTLSSYWIEWVKQRPGHGLEWIGEILPGSGSTNYNEKFKGKATFTADTSSNTAYMQLSSLTSEDSAVYYCARSGAGGYDSGAFAYWGQGTLVTVSA VL: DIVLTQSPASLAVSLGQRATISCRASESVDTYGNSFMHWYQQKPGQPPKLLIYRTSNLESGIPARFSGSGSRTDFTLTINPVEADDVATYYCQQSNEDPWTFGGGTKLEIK , please.
A: 2.01

Q: Fill in: EC50 of D2M002-002 (antibody, V domains shown, Hit from immunised mice; also called clone #2; anti-LILRB1/2 clone #2) VH: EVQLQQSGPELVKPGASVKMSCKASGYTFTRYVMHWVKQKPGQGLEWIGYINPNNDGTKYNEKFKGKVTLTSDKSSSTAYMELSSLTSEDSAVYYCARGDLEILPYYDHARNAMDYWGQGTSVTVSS VL: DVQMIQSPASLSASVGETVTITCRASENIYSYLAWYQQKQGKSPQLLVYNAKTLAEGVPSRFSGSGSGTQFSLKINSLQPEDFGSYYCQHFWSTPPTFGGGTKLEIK is ___
A: 0.326
